Target: full length AKT E17K (Homo sapiens, UniProt P31749, E17K)
Construct: host or cells: HEK-293 (ATCC CRL-1573)
Sequence (P31749 whole entry E17K): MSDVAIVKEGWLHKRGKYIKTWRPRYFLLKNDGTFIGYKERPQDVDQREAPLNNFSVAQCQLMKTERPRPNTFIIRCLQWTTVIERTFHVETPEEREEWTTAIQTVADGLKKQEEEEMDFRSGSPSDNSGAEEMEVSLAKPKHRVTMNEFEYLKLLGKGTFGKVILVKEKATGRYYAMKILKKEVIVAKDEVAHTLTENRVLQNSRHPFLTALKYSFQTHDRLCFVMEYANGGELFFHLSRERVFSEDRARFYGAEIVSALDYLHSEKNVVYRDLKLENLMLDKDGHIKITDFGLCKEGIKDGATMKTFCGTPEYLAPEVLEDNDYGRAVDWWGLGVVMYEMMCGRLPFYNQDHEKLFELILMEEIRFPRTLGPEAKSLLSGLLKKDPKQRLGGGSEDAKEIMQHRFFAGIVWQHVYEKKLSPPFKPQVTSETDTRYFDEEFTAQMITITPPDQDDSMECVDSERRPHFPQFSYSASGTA
Test: NanoBRET Target Engagement (TE) Assay
Format: cell-based
Conditions: competitive displacement of tracer in cells, read-out: AKT1 E17K IC50
Experimental: The NanoBRET™ Target Engagement (TE) Intracellular Kinase Assays are based on the NanoBRET™ System (Promega Corporation), an energy transfer technique designed to measure molecular proximity in living cells. […] All cells were evaluated for viability prior to transfection and optimization of the transfection was done prior to experimentation. […] Milli-BRET units (mBU) are calculated by multiplying the raw BRET values by 1000. […]
pIC50: −log10 of the molar value.
Measured Quantity: pIC50

// below: answered compounds
N#Cc1nccc(NC2CCN(Cc3ccc(-n4c(-c5cccnc5N)nc5ccc(-c6ccc(F)cc6)nc54)cc3)CC2)n1	> 7.82
N#Cc1nccc(NC2CCN(Cc3ccc(-n4c(-c5cccnc5N)nc5ccc(-c6cnn(C(F)F)n6)nc54)cc3)CC2)n1	> 7.82
COc1cncc(-c2ccc3nc(-c4cccnc4N)n(-c4ccc(CN5CCC(Nc6ccnc(C#N)n6)CC5)cc4)c3n2)c1	> 7.82
N#Cc1ncnc(NC2CCN(Cc3ccc(-n4c(-c5cccnc5N)nc5ccc(-c6ccccc6)nc54)cc3)CC2)n1	> 7.82
N#Cc1ccnc(N2CCN(Cc3ccc(-n4c(-c5cccnc5N)nc5ccc(-c6ccccc6Cl)nc54)cc3)CC2)n1	7.22 to 7.82

# ---- query compound ----
Query (compound): `N#Cc1ccc(-c2ccc3nc(-c4cccnc4N)n(-c4ccc(CN5CCC(Nc6nccc(C#N)n6)CC5)cc4)c3n2)cc1` ; field requested: pIC50 6.22 to 7.22

###

Molecular target: full length AKT E17K (Homo sapiens, UniProt P31749, E17K)
Construct: host or cells: HEK-293 (ATCC CRL-1573)
Experiment: NanoBRET Target Engagement (TE) Assay
Format: cell-based
Details: competitive tracer displacement in living cells, read-out: AKT1 E17K IC50
Measured Quantity: IC50

N#Cc1nccc(C(=O)N2CCN(Cc3ccc(-n4c(-c5cccnc5N)nc5cccnc54)cc3)CC2)n1	60 to 600 nM

Record request: IC50 value, item `N#Cc1ncnc(N2CCC3(CCN(Cc4ccc(-n5c(-c6cccnc6N)nc6ccc(-c7ccccc7)nc65)cc4)C3)CC2)n1` 15 to 60 nM

Query `N#Cc1cccnc1C(=O)NC1CCN(Cc2ccc(-n3c(-c4cccnc4N)nc4ccc(-c5ccccc5)nc43)cc2)CC1` next < 15 nM

Next record, please: `N#Cc1cc(C(=O)N2CCN(Cc3ccc(-n4c(-c5cccnc5N)nc5ccc(-c6ccccc6)nc54)cc3)CC2)ncn1` < 15 nM

Could you do the same for `N#Cc1ccc(C(=O)NC2CCN(Cc3ccc(-n4c(-c5cccnc5N)nc5ccc(-c6ccccc6)nc54)cc3)CC2)cn1` , please? 60 to 600 nM

Would you mind doing `N#Cc1ccnc(NC2CCN(Cc3ccc(-n4c(-c5cccnc5N)nc5cccnc54)cc3)CC2)n1` as well? 60 to 600 nM

Now give it for `N#Cc1nccc(NC2CCN(Cc3ccc(-n4c(-c5cccnc5N)nc5ccc(C6CCCCC6)nc54)cc3)CC2)n1` too. < 15 nM

###

Target: full length AKT E17K (Homo sapiens, UniProt P31749, E17K)
Construct: host or cells: HEK-293 (ATCC CRL-1573)
Experiment: NanoBRET Target Engagement (TE) Assay
Assay type: cell-based
Details: competitive tracer displacement in living cells, read-out: AKT1 E17K IC50
Experimental: The NanoBRET™ Target Engagement (TE) Intracellular Kinase Assays are based on the NanoBRET™ System (Promega Corporation), an energy transfer technique designed to measure molecular proximity in living cells. […] All cells were evaluated for viability prior to transfection and optimization of the transfection was done prior to experimentation. […] Milli-BRET units (mBU) are calculated by multiplying the raw BRET values by 1000. […]
This section presents compounds with their documented IC50 values.

Please review the following examples before continuing.
[2H]C([2H])([2H])N(C(=O)c1ccnc(C#N)n1)C1CCN(Cc2ccc(-n3c(-c4cccnc4N)nc4ccc(-c5ccccc5)nc43)cc2)CC1 [Example 234]	< 15 nM
N#Cc1ccnc(C(=O)NCc2ccc(-n3c(-c4cccnc4N)nc4cccnc43)cc2)c1 [Example 147]	600 to 10000 nM
N#Cc1nc2c(C(=O)N3CCN(Cc4ccc(-n5c(-c6cccnc6N)nc6ccc(-c7ccccc7)nc65)cc4)CC3)cc(F)cc2s1 [Example 181]	15 to 60 nM
N#Cc1ccnc(C(=O)NC2CCN(Cc3ccc(-n4c(-c5cccnc5N)nc5cccnc54)cc3)CC2)c1 [Example 31]	600 to 10000 nM
COc1ccc2nc(-c3cccnc3N)n(-c3ccc(CN4CCC(Nc5ccnc(C#N)n5)CC4)cc3)c2n1 [Example 287]	< 15 nM
N#Cc1nccc(NC2CCN(Cc3ccc(-n4c(-c5cccnc5N)nc5cccnc54)cc3)CC2)n1 [Example 92]	15 to 60 nM
N#Cc1ccc(N2CCN(Cc3ccc(-n4c(-c5cccnc5N)nc5cccnc54)cc3)CC2)cn1 [Example 14]	600 to 10000 nM
N#Cc1ccnc(N2CC3CCC(C2)N3Cc2ccc(-n3c(-c4cccnc4N)nc4ccc(-c5ccccc5)nc43)cc2)n1 [Example 212]	60 to 600 nM

Field request: IC50 | item: [2H]C([2H])(c1ccc(-n2c(-c3cccnc3N)nc3ccc(-c4ccccc4)nc32)cc1)N1CCC(Nc2ccnc(C#N)n2)CC1 [Example 222] < 15 nM

Proceed to N#Cc1ccc(C(=O)NCc2ccc(-n3c(-c4cccnc4N)nc4cc(-c5ccccc5)cnc43)cc2)cn1 [Example 106] 600 to 10000 nM

# iterate: N#Cc1nccc(NC2CCN(Cc3ccc(-n4c(-c5cccnc5N)nc5ccc(C(N)=O)nc54)cc3)CC2)n1 [Example 288] 15 to 60 nM

Another compound to check: Cn1cccc(-c2ccc3nc(-c4cccnc4N)n(-c4ccc(CN5CCC(Nc6ccnc(C#N)n6)CC5)cc4)c3n2)c1=O [Example 261] < 15 nM

Now the same for N#Cc1nc2c(C(=O)NCc3ccc(-n4c(-c5cccnc5N)nc5cccnc54)cc3)cc(F)cc2s1 [Example 174] 15 to 60 nM

Next compound: N#Cc1cc(C(=O)N2CCN(Cc3ccc(-n4c(-c5cccnc5N)nc5cccnc54)cc3)CC2)ccn1 [Example 109] 600 to 10000 nM
